Form field: TGI (one value per entry).
- System: A498 renal
- experiment: NCI tumour cell line growth inhibition, 48 h
value.kind: TGI (µM)

molecule: O=C(/C=C/c1ccc(-c2ccccc2)cc1)NCc1ccc(C(=O)NCc2ccccc2)cc1
value.kind: TGI
comparative.sign: >
recorded.value: 100

molecule: Cn1c2ccccc2c2c3c(c4c5ccccc5n(C)c4c21)C(=O)NC3=O
value.kind: TGI
comparative.sign: >
recorded.value: 44.2

molecule: CCN(CC)CCCNc1ccc2nc(C)n3c4ccc(O)cc4c(=O)c1c23
value.kind: TGI
comparative.sign: =
recorded.value: 24.5

molecule: CCC1(N=[N+]=[N-])C(=O)c2ccccc2N(C)C1=O (centres undefined)
value.kind: TGI
comparative.sign: >
recorded.value: 100

molecule: O=C(/C=C/c1ccccc1)C(Br)C(Br)c1ccccc1 (centres undefined)
value.kind: TGI
comparative.sign: =
recorded.value: 5.68

molecule: c1ccc(C(NCC2CCO2)(c2ccccc2)c2ccccc2)cc1 (centres undefined)
value.kind: TGI
comparative.sign: =
recorded.value: 36.1

molecule: COc1ccc(C(=O)O[C@H]2[C@@H]3C=CO[C@@H](OC4OC(CO)C(O)C(O)C4O)[C@@H]3[C@@]3(CO)O[C@@H]23)cc1O (some centres undefined)
value.kind: TGI
comparative.sign: >
recorded.value: 100

molecule: COc1ccccc1C#Cc1ccccc1C#CCCCCO
value.kind: TGI
comparative.sign: =
recorded.value: 27.9

molecule: Nc1nc(Cl)c(N)c(NCC2(CO)CC2)n1
value.kind: TGI
comparative.sign: >
recorded.value: 100

molecule: COc1ccc(NC(=O)/C(=C/c2ccccc2)C(C)=O)cc1
value.kind: TGI
comparative.sign: =
recorded.value: 36.7

molecule: NC(=S)/N=C(/c1nc2ccc(Cl)cc2[nH]c1=O)C(O)c1ccccc1Cl (centres undefined)
value.kind: TGI
comparative.sign: >
recorded.value: 100

molecule: CC1/C=C/[C@@]2(C)CCC(C(C)(C)O)C2C(O)C[C@](C)(O)/C=C/C1 (some centres undefined)
value.kind: TGI
comparative.sign: >
recorded.value: 100

molecule: COc1ccc(N=NC(C(=O)c2ccccc2)C(=O)c2ccccc2)cc1
value.kind: TGI
comparative.sign: >
recorded.value: 100

molecule: COc1ccc(/C=C/C(=O)/C=C/c2cc3ccccc3[nH]c2=O)cc1
value.kind: TGI
comparative.sign: =
recorded.value: 18.8

---

- Tested on: HCT-116 colon
- experiment: NCI tumour cell line growth inhibition, 48 h; in the data active means GI50 below about 0.43 µM; inactive means the rest
Outcome codes: active, inactive

molecule: C=CCn1c(C)nc2ccc(Nc3nc(Nc4ccc(F)cc4)nc4ccccc34)cc21
tested.on: HCT-116 colon
answer.label: inactive
--
molecule: CC(=O)Oc1ccc(C23c4ccccc4C2(OC(C)=O)c2cc(OC(C)=O)ccc23)cc1 (stereo not given)
tested.on: HCT-116 colon
answer.label: inactive
--
molecule: CCC[CH2][Sn]([Cl])([Cl])[CH2]CCC
tested.on: HCT-116 colon
answer.label: inactive
--
molecule: CN(CCCCCl)P(=O)(OCCS(=O)(=O)CC(NC(=O)CCC(N)C(=O)O)C(=O)NC(C(=O)O)c1ccccc1)OCC1OC(n2ccc(N)nc2=O)C(F)(F)C1O (stereo not given)
tested.on: HCT-116 colon
answer.label: active
--
molecule: O=C1/C(=C/c2cccc(Br)c2)COc2ccc(O)cc21
tested.on: HCT-116 colon
answer.label: inactive
--
molecule: Cc1nc(N)nc2c1CCC(O)S2 (stereo not given)
tested.on: HCT-116 colon
answer.label: inactive
--
molecule: OCc1ccc(N2CCc3cccc(F)c3C2)cc1Cl
tested.on: HCT-116 colon
answer.label: active
--
molecule: COc1ccc(-c2cs/c(=N\N=C\c3ccc(O)cc3O)n2/N=C/c2ccc(O)cc2O)cc1
tested.on: HCT-116 colon
answer.label: inactive
--
molecule: CCOC(=O)Nc1nc2ccc(OC)cc2s1
tested.on: HCT-116 colon
answer.label: inactive
--
molecule: O=c1c2cc(F)ccc2sc2c(N3CCNCC3)nc3ccc(F)cc3c12
tested.on: HCT-116 colon
answer.label: inactive
--
molecule: CC(=O)c1c(C)nc(SSc2nc(C)c(C(C)=O)c(-c3ccc(Cl)cc3)c2C#N)c(C#N)c1-c1ccc(Cl)cc1
tested.on: HCT-116 colon
answer.label: inactive
--
molecule: O=C(N/N=C/c1cc(Cl)cc(Cl)c1[O-])c1ccccc1O.O=C(N/N=C/c1cc(Cl)cc(Cl)c1[O-])c1ccccc1O.[Co+2]
tested.on: HCT-116 colon
answer.label: inactive
--
molecule: [C](#Cc1ccccc1)[Hg][C]#Cc1ccccc1
tested.on: HCT-116 colon
answer.label: inactive
--
molecule: Cn1c(-c2c(N)n(Nc3cccc(Cl)c3)c3nc(C#N)c(C#N)nc23)nc2ccccc21
tested.on: HCT-116 colon
answer.label: inactive
--
molecule: FC(F)(c1ccc2ncccc2c1)c1nnc2ccc(-c3ccncc3)nn12
tested.on: HCT-116 colon
answer.label: inactive
